Test system: wheat (Triticum aestivum)
Assay: Test B pre-/postemergence
Assay type: in vivo
Design: key: 0 is no effect; 10 is complete control
Details: Preemergence, Rate 62 g/ha; scale of 0 to 10
Readout Name: Plant response rating, Wheat
Please reply with the value in numeric form only.

Check out these entries, answers already filled in.
INSERT INTO assay_data (structure_notation, assayed_system, readout_name, assay_result) VALUES
  ('N#Cc1ccc(-c2nccc(C(=O)c3cccc(C(F)(F)F)c3)n2)cc1', 'wheat (Triticum aestivum)', 'Plant response rating, Wheat', 0),
  ('O=C(c1cccc(C(F)(F)F)c1)c1ccnc(-c2ccc(C(F)(F)F)cc2)n1', 'wheat (Triticum aestivum)', 'Plant response rating, Wheat', 0),
  ('COc1cnc(-n2ccc(C(F)(F)F)n2)nc1C(=O)c1cccc(C(F)(F)F)c1', 'wheat (Triticum aestivum)', 'Plant response rating, Wheat', 0),
  ('CCc1cnc(-n2ccc(C(F)(F)F)n2)nc1C(=O)c1cccc(C#N)c1', 'wheat (Triticum aestivum)', 'Plant response rating, Wheat', 0),
  ('Cc1cnc(-n2ccc(C(F)(F)F)n2)nc1C(=O)c1cccc(OC(F)(F)F)c1', 'wheat (Triticum aestivum)', 'Plant response rating, Wheat', 0),
  ('O=C(c1cccc(C(F)(F)F)c1)c1ccnc(-c2ccc(F)cc2F)n1', 'wheat (Triticum aestivum)', 'Plant response rating, Wheat', 0);

Given Cc1cnc(-n2ccc(C(F)(F)F)n2)nc1C(=O)c1ccc(C(F)(F)F)cc1 , respond with its Plant response rating, Wheat.
0

Given Cc1cnc(-n2cnc(C(F)(F)F)n2)nc1C(=O)c1cccc(C(F)(F)F)c1 , respond with its Plant response rating, Wheat.
3

Given CCc1cnc(-n2ccc(C(F)(F)F)n2)nc1C(=O)c1cccc(C(F)(F)F)c1 , respond with its Plant response rating, Wheat.
1

Given Cc1cnc(-c2ccc(C(F)(F)F)cc2)nc1C(=O)c1cccc(C(F)(F)F)c1 , respond with its Plant response rating, Wheat.
2
